So I've got a bunch of binders here, and I need their IC50 (anthrax lethal toxin neutralization, RAW264.7 macrophages) values.
Target: anthrax protective antigen, wild type PA83 (Bacillus anthracis, UniProt P13423 30-764)
Sequence (P13423 30-764): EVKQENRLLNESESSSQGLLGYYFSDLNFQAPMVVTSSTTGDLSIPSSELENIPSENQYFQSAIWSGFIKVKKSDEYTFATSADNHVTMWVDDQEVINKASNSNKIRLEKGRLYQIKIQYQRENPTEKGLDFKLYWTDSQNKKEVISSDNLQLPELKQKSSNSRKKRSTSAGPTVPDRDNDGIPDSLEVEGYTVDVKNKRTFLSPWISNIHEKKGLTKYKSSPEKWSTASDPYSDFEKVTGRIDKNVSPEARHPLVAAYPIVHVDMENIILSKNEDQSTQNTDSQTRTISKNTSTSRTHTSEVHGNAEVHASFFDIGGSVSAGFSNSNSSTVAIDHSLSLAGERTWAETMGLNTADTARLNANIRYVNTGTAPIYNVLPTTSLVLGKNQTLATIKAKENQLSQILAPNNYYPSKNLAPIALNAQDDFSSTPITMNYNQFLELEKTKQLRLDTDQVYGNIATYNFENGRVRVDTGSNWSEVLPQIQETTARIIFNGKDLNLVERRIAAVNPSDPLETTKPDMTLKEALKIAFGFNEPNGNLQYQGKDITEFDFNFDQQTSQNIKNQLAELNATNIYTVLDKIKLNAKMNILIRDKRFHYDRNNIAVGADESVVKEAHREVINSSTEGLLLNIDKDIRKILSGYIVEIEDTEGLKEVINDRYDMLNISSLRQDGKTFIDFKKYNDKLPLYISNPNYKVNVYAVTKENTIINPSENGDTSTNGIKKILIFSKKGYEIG
Assay: cell-based or functional assay
Output spec: scalar in nM, unitless text.

# get_value(readout='IC50 (anthrax lethal toxin neutralization, RAW264.7 macrophages)', item= JKO-E12 (VHH) VHH: QVQLAETGGGLVQAGGSLRLSCLASRMSFSRRPMAWYRQAPGKQRERVATISSFGDTTNYTDSVEGRFTISRDNAKNTMYLQMNSLKPDDTAVYYCNTLLATYAWGQGTQVTVSS )
0.2

# get_value(readout='IC50 (anthrax lethal toxin neutralization, RAW264.7 macrophages)', item= JIK-B10 (VHH) VHH: QVQLVETGGGLVQPGGSLRLSCAASGFTFSSYRMSWYRQAAGKERDVVATITANGVPTGYADSVMGRFTISRDNAKNTVYLEMNSLNPEDTAVYYCNAPRLHTSVGYWGQGTQVTVSS )
8

# get_value(readout='IC50 (anthrax lethal toxin neutralization, RAW264.7 macrophages)', item= JKH-C7 (VHH, also called JHK-C7) VHH: VQLVESGGGGLVQAGGSLRLSCAASGRTFSGYAMGWFRQAPGKEREFVADISWSGHNTYYGDSVKGRFTISRDTAKNTVYLQMNSLKPEDTAVYYCAAEGARTHLSDSYYFPGLWAEPPVGYWGQGTQVTVSS )
5

# get_value(readout='IC50 (anthrax lethal toxin neutralization, RAW264.7 macrophages)', item= JIK-B8 (VHH) VHH: SGGGLVQPGGSLGLSCVVASERSINNYGMGWYRQAPGKQRELVAQISSGGTTNYADSVEGRFTISRDNVKKMVHLQVNSLKPEDTAVYYCNSLLRTFSWGQGTQVTVSS )
1

# get_value(readout='IC50 (anthrax lethal toxin neutralization, RAW264.7 macrophages)', item= JIJ-E9 (VHH) VHH: QVQLVETGGLVQPGGSLRLSCAASRSTTATIYSMNWYRQAPGKQRELVAGMTSDGQTNYATSVKGRFTISRDNAKNTVYLLMNSLKLEDTAVYYCYVKPWRLQGWDYWGQGTQVTVSS )
30

# get_value(readout='IC50 (anthrax lethal toxin neutralization, RAW264.7 macrophages)', item= JIJ-D3 (VHH) VHH: QVQLVETGGLVQPGGSLRLSCAASGLTFSSTAMAWFRQAPGKEREFVARISGAGITIYYSDSVKDRFTISRNNVENTVYLQMNSLKTEDTAVYYCAARRNTYTSDYNIPARYPYWGQGTQVTVSS )
9

# get_value(readout='IC50 (anthrax lethal toxin neutralization, RAW264.7 macrophages)', item= JHD-B6 (VHH) VHH: QVQLVESGGGLVQPGGSLRLSCAASGSSFSRYAMRWYRQAPGKQRELVANINSRGTSNYADSVKGRFTISRDNAKNTVYLQMNSLKPEDTAVYYCNAEWLGRSEPSWGQGTQVTVSS )
10
